Biological target: apelin receptor (APJ) (Homo sapiens, UniProt P35414)
Sequence (P35414 1-380): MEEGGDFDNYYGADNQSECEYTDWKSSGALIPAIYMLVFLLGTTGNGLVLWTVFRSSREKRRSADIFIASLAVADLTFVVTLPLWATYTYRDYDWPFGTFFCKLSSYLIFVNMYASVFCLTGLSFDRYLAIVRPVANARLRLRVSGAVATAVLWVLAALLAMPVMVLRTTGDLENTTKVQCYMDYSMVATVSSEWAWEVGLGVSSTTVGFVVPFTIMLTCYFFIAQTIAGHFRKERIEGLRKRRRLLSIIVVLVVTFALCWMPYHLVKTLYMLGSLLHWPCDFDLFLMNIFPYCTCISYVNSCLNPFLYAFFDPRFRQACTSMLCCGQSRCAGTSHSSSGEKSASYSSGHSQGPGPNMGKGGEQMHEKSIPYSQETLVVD
Assay: In vitro apelin agonist activity (methods of Giddings et al., Apelin-13 as positive control)
Format: cell-based
Conditions: in vitro apelin agonist activity, methods of Giddings et al., Apelin-13 as positive control; read-out: EC50 (nM) Ave
ATTRIBUTE_MEASURED: EC50 (nM)

As a guide, the following entries are already answered.
COMPOUND	TGT	EC50 [nM]
O=C(N[C@@H](CC1CCCC1)C(=O)O)c1cc(-c2ccccc2C(F)(F)F)n(C2CCCC2)n1 [compound 526]	apelin receptor (APJ) (Homo sapiens, UniProt P35414)	1720
CCc1ccccc1-c1cc(C(=O)N[C@@H](CCN2CCCC(F)(F)C2)CC(=O)Nc2nccs2)nn1C1CCCC1 [compound 410]	apelin receptor (APJ) (Homo sapiens, UniProt P35414)	7

I. O=C(N[C@@H](CCN1CCCC(F)(F)C1)Cc1nnc(C(F)(F)F)[nH]1)c1cc(-c2ccccc2Cl)n(C2CCCC2)n1 [compound 459]
II. O=C(C[C@H](CCN1CCCCC12COC2)NC(=O)c1cc(-c2ccccc2C(F)(F)F)n(C2CCCC2)n1)NC1CCC1 [compound 522]
Task: Compare I and II by numeric EC50 and name the larger one. Respond with the label that goes with your answer.
Output: I

* * *

Target: apelin receptor (APJ) (Homo sapiens)
Sequence (P35414 1-380): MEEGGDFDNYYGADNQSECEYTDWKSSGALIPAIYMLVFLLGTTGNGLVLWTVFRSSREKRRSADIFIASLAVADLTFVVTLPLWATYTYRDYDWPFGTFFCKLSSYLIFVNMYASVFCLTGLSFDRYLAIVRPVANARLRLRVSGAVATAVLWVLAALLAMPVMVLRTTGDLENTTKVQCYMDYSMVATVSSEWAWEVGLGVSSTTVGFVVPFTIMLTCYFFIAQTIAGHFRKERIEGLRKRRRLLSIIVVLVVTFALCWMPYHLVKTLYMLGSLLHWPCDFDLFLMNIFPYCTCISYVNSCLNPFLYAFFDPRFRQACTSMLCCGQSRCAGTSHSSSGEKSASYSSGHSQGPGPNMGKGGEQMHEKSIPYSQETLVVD
Assay: In vitro apelin agonist activity (methods of Giddings et al., Apelin-13 as positive control)
Format: cell-based
Settings: in vitro apelin agonist activity, methods of Giddings et al., Apelin-13 as positive control; read-out: EC50 (nM) Ave
ATTRIBUTE_MEASURED: EC50

As a guide, the following entries are already answered.
COMPOUND	TGT	EC50
O=C(O)C[C@H](CCN1CCCC(F)(F)C1)NC(=O)c1cc(-c2c(Cl)cccc2C(F)(F)F)n(C2CCCC2)n1 [compound 556]	apelin receptor (APJ) (Homo sapiens)	> 10 nM
CC1(C)CCCCN1CC[C@@H](CC(=O)NC1CCC1)NC(=O)c1cc(-c2ccccc2C(F)(F)F)n(C2CCCC2)n1 [compound 517]	apelin receptor (APJ) (Homo sapiens)	261 nM

Task: Consider the compound shown here: CCN(C(=O)c1cc(-c2c(OCC(F)(F)F)cccc2OCC(F)(F)F)n(C2CCCC2)n1)[C@@H](CCN1CCCCC1)CC(=O)NC1CCC1 [compound 342] What is its recorded EC50?
Output: > 10000 nM

* * *

Molecular target: apelin receptor (APJ) (Homo sapiens, UniProt P35414)
Sequence (P35414 1-380): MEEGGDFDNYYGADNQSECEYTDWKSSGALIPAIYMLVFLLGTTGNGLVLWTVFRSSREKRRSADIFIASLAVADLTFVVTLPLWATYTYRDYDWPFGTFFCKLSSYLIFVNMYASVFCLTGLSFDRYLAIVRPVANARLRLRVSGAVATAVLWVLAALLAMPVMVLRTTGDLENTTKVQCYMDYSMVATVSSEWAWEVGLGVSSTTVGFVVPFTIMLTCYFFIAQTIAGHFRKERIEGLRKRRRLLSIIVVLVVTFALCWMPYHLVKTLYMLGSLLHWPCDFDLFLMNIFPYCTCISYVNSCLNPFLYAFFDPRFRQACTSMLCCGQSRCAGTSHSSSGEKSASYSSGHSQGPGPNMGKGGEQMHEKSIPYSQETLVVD
Assay: In vitro apelin agonist activity (methods of Giddings et al., Apelin-13 as positive control)
Assay type: cell-based
Details: in vitro apelin agonist activity, methods of Giddings et al., Apelin-13 as positive control; read-out: EC50 (nM) Ave
ATTRIBUTE_MEASURED: EC50 (nM)

As a guide, the following entries are already answered.
MOLECULE	EC50 (nM)
COc1cccc(OC)c1-c1cc(C(=O)N[C@@H](CCN2CCCCC2)Cc2nnnn2C)nn1C1CCCC1	2830
C[C@@H](C(=O)O)[C@H](CCN1CCCC(F)(F)C1)NC(=O)c1cc(-c2ccccc2C(F)(F)F)n(C2CCCC2)n1	23
O=C(O)C[C@H](CCNC(=O)C1CCCC1)NC(=O)c1cc(-c2ccccc2C(F)(F)F)n(C2CCCC2)n1	544
O=C(C[C@H](CC(=O)N1CCCCC1)NC(=O)c1cc(-c2ccccc2C(F)(F)F)n(C2CCCC2)n1)NC1CCC1	79
O=C(O)C[C@H](CCN1CCCC1)NC(=O)c1cc(-c2ccccc2C(F)(F)F)n(C2CCCC2)n1	548

A. CC(F)(F)c1ccccc1-c1cc(C(=O)N[C@@H](CCN2CCCC(F)(F)C2)CC(=O)Nc2nccs2)nn1C1CCCC1
B. COCCN(C)C(=O)[C@H](COc1ccccc1)NC(=O)c1cc(-c2ccccc2C(F)(F)F)n(C2CCCC2)n1
Task: Problem: Given the entries A and B , determine which has the lower reported EC50. Respond with the label that goes with your answer.
Output: A

1. O=C(O)C[C@H](CCNC1CC(F)(F)C1)NC(=O)c1cc(-c2ccccc2C(F)(F)F)n(C2CCCC2)n1
2. C[C@H](C[C@@H](CC(=O)O)NC(=O)c1cc(-c2ccccc2C(F)(F)F)n(C2CCCC2)n1)N1CCCC(F)(F)C1
3. CC1(C)CN(CC[C@@H](CC(=O)O)NC(=O)c2cc(-c3ccccc3C(F)(F)F)n(C3CCCC3)n2)C1
Task: Ordering criterion: EC50; begin with the maximum. Response format: the labels, sorted as the prompt asks.
Output: 3, 1, 2

1. CC1(F)CCN(CC[C@@H](CC(=O)O)NC(=O)c2cc(-c3ccccc3C(F)(F)F)n(C3CCCC3)n2)C1 (some centres unmarked)
2. O=C(O)C[C@H](CCN1CC2CCC(C1)C2(F)F)NC(=O)c1cc(-c2ccccc2C(F)(F)F)n(C2CCCC2)n1
Task: Compare 1 and 2 by numeric EC50 and name the larger one. Respond with the label that goes with your answer.
Output: 2
(2: 310 nM, 1: 98 nM)

* * *

Target: apelin receptor (APJ) (Homo sapiens, UniProt P35414)
Experiment: In vitro apelin agonist activity (methods of Giddings et al., Apelin-13 as positive control)
Assay type: cell-based
Conditions: in vitro apelin agonist activity, methods of Giddings et al., Apelin-13 as positive control; read-out: EC50 (nM) Ave
Excerpt: Characterization of the Apelin Agonist Activity of the Compounds 1:39-47, the contents of which are hereby incorporated by reference in its entirety. Using the methods described in Giddings et al. and Apelin-13 as a positive control.
ATTRIBUTE_MEASURED: EC50 (nM)

As a guide, the following entries are already answered.
MOLECULE	EC50, nM
CCc1ccccc1-c1cc(C(=O)N[C@@H](CCN2CCC(F)(F)CC2)CC(=O)O)nn1C1CCCC1	227
O=C(O)C[C@H](CCN1C(=O)CCC1=O)NC(=O)c1cc(-c2ccccc2C(F)(F)F)n(C2CCCC2)n1	182
O=C(C[C@H](CCN1CCCCC1)NC(=O)c1cc(-c2cccs2)n(C2CCCC2)n1)NC1CCC1	5860

1. C[C@@H](C[C@@H](CC(=O)O)NC(=O)c1cc(-c2ccccc2C(F)(F)F)n(C2CCCC2)n1)N1CCC(F)(F)C1
2. CN(CC[C@@H](CC(=O)NC1CCC1)NC(=O)c1cc(-c2ccccc2C(F)(F)F)n(C2CCCC2)n1)C1CCCCC1
Task: Compare 1 and 2 by numeric EC50 and name the larger one. Respond with the label that goes with your answer.
Output: 1
(1: 124 nM, 2: 14 nM)

P. COc1cccc(Cl)c1-c1cc(C(=O)N[C@@H](CCN2CCCCC2)CC(=O)NC2CCC2)nn1C1CCCC1
Q. COc1cccc(OC)c1-c1cc(C(=O)N[C@@H](CCN2CC3(CCC3)C2)CC(=O)NC2CCC2)nn1C1CCCC1
Task: Problem: Given the entries P and Q , determine which has the lower reported EC50. Respond with the label that goes with your answer.
Output: Q
(Q: 197 nM, P: 1030 nM)
